Listed next: entries and their corresponding pEC50.
System: NCI-H2052
Test: Mesothelioma cell line proliferation assay (ATPlite), NCI-H2052
Type: cell-based
Conditions: Homo sapiens, NCI-H2052, 144 h, NCI-H2052 cells, 6 days, ATPlite cell viability
pEC50: −log10 of the molar value.
readout-type: pEC50

>>> measured_value("C=CC(=O)NCc1ccc(N2CCC(F)(F)CC2)cc1-c1ccn(C)n1")
"> 6.00"
>>> measured_value("C=CC(=O)NCc1ccc(C2CCC(F)(F)CC2)cc1-c1ccn(C)n1")
"> 6.00"
>>> measured_value("C=CC(=O)NCc1cc(-c2ccc(F)cc2)cc(-c2ccn(C(F)F)n2)n1")
"5.00 to 6.00"
>>> measured_value("C=CC(=O)NCc1ccc(-c2ccc(F)cc2)cc1-c1cc[nH]n1")
"> 6.00"
>>> measured_value("C=CC(=O)NCc1ccc(-c2ccc(F)cc2)cc1-c1ccn(C(F)F)n1")
"> 6.00"
>>> measured_value("C=CC(=O)NCc1ccc(-c2ccc(F)cc2)cc1-c1nnn(C(F)F)n1")
"5.00 to 6.00"
>>> measured_value("C=CC(=O)NCc1cnc(-c2ccc(F)cc2)cc1-c1cc2n(n1)CCCC2")
"< 5.00"
>>> measured_value("C=CC(=O)NCc1cc(-c2ccc(F)cc2)nc(-c2ccn(C(F)F)n2)n1")
"5.00 to 6.00"
>>> measured_value("CNS(=O)(=O)CCNc1ccc(-c2ccc(F)cc2)nc1-c1ccn(C(F)F)n1")
"< 5.00"

---

System: NCI-H2052
Experiment: Mesothelioma cell line proliferation assay (ATPlite), NCI-H2052
Format: cell-based
Conditions: Homo sapiens, NCI-H2052, 144 h, NCI-H2052 cells, 6 days, ATPlite cell viability
readout-type: EC50

>>> measured_value("C=CC(=O)NCc1ccc(-c2ccc(Cl)cc2)cc1-c1ccn(C)n1")
"< 1 µM"
>>> measured_value("C=CC(=O)NCc1ccc(-c2ccc(F)cc2)cc1-c1ccn(C2CC2)n1")
"< 1 µM"
>>> measured_value("C=CC(=O)NCc1ccc(-c2ccc(F)c(F)c2)cc1-c1ccn(C)n1")
"< 1 µM"
>>> measured_value("C=CC(=O)NCc1ccc(-c2ccc(F)cc2)cc1-c1ccccn1")
"< 1 µM"
>>> measured_value("C=CC(=O)N1CCC(c2ccc(-c3ccc(F)cc3)cc2-c2ccn(C)n2)C1 (centres unmarked)")
"< 1 µM"
>>> measured_value("C=CC(=O)NCc1cnc(N2CCC(F)(F)CC2)cc1-c1ccn(C(F)F)n1")
"1 to 10 µM"
>>> measured_value("C=CC(=O)NCc1ccc(-c2ccccc2)nc1-c1ccn(C)n1")
"< 1 µM"
>>> measured_value("C=CC(=O)NCc1ccc(-c2ccc(F)cc2)cc1-c1ccn(C)n1")
"< 1 µM"
>>> measured_value("C=CC(=O)NCc1ccc(-c2ccc(F)cc2)cc1-c1ccn(CCOC)n1")
"< 1 µM"
>>> measured_value("C=CC(=O)NCc1ccc(-c2ccc(F)cc2)nc1-c1ccn(C(F)F)n1")
"< 1 µM"
>>> measured_value("C=CC(=O)NCc1ncc(-c2ccc(F)cc2)cc1-c1ccn(C(F)F)n1")
"< 1 µM"
>>> measured_value("C=CC(=O)NCc1cc(-c2ccc(F)cc2)cc(-c2ccn(C3CC3)n2)c1")
"1 to 10 µM"
>>> measured_value("C=CC(=O)NCc1cc(-c2ccccc2)cc(-c2ccn(C)n2)c1")
"> 10 µM"
>>> measured_value("C=CC(=O)NCc1ccc(-c2ccc(F)cc2)nc1-c1ccn(C)n1")
"< 1 µM"
>>> measured_value("C=CC(=O)NCc1cnc(-c2ccc(F)cc2)cc1-n1cc(C)cn1")
"1 to 10 µM"
>>> measured_value("C=CC(=O)NCc1cnc(-c2ccc(F)cc2)cc1-n1ncc(C)n1")
"< 1 µM"
>>> measured_value("C=CC(=O)NCc1cnc(-c2cccc(Cl)c2)cc1-c1ccn(C(F)F)n1")
"1 to 10 µM"
>>> measured_value("C=CC(=O)NCc1ccc(-c2ccc(C(F)(F)F)cc2)cc1-c1ccn(C2CC2)n1")
"< 1 µM"
>>> measured_value("C=C(F)C(=O)NCc1ccc(-c2ccc(C(F)(F)F)cc2)cc1-c1ccn(C)n1")
"< 1 µM"
>>> measured_value("C=CC(=O)NCc1ccc(-c2ccc(F)cc2)cc1-c1cnn(C)n1")
"1 to 10 µM"
>>> measured_value("C=CC(=O)NCc1cnc(-c2ccc(F)cc2)cc1-n1ccc(C)n1")
"< 1 µM"
>>> measured_value("C=CC(=O)NCc1cnc(-c2ccc(F)cc2)cc1-n1nnc(C)n1")
"1 to 10 µM"
>>> measured_value("C=CC(=O)NCc1ccc(-c2ccc(F)cc2)cc1-c1cn(C)nn1")
"< 1 µM"
>>> measured_value("C=CC(=O)NCc1ccc(-c2cccc(F)c2)cc1-c1ccn(C)n1")
"< 1 µM"
>>> measured_value("C=CC(=O)NCc1ccc(-c2ccc(F)cc2)cc1-n1ccc(C)n1")
"1 to 10 µM"
>>> measured_value("C=CC(=O)NCc1ncc(-c2ccc(F)cc2)cc1-c1ccn(C2CC2)n1")
"< 1 µM"
>>> measured_value("C=CC(=O)NCc1ccc(-c2ccc(F)cc2F)cc1-c1ccn(C)n1")
"< 1 µM"
>>> measured_value("C=CC(=O)NCc1cnc(-c2ccc(F)cc2)nc1-c1ccn(C(F)F)n1")
"< 1 µM"
>>> measured_value("C=CC(=O)NCc1cnc(-c2cccc(F)c2)cc1-c1ccn(C(F)F)n1")
"1 to 10 µM"
>>> measured_value("C=CC(=O)Nc1cc(-c2ccccc2)cc(-c2ccn(Cc3cccnc3)n2)c1")
"1 to 10 µM"
>>> measured_value("C=CC(=O)NCc1cc(-c2ccc(F)cc2)cc(-c2ccn(C(F)F)n2)c1")
"1 to 10 µM"
>>> measured_value("C=CC(=O)NCc1cnc(-c2cccc(C(F)(F)F)c2)cc1-c1ccn(C(F)F)n1")
"1 to 10 µM"
>>> measured_value("C=CC(=O)NCc1cc(C2CCC(F)(F)CC2)cc(-c2ccn(C(F)F)n2)n1")
"> 10 µM"
>>> measured_value("C=CC(=O)NCc1ccc(-c2ccc(F)cc2)cc1-c1cnn(C)c1")
"< 1 µM"
>>> measured_value("C=CC(=O)NCc1ccc(-c2ccc(F)cc2)cc1-c1cc(C)n(C)n1")
"< 1 µM"
